Value source: patent US20130109682A1

study.target: UniProt Q86V86
assay.notes: KinaseGlo Pim3 ATP depletion assay
Format: biochemical
Kindly state pIC50 for each of the entries shown.
Give bare numbers, as −log10 of the molar value.

>>> reading("Nc1cc(F)c(-c2c(F)cccc2F)nc1C(=O)Nc1cnccc1C1=C[C@@H](O)[C@H](O)[C@@H](CCl)O1")
9.00

Hello, I would appreciate it if you could give pIC50 for each entry below.
1. C=C[C@H]1OC(c2ccncc2NC(=O)c2nc(-c3c(F)cccc3F)ncc2N)=C[C@@H](O)[C@@H]1O
2. C=C[C@H]1O[C@@H](c2ccncc2NC(=O)c2nc(-c3c(F)cccc3F)ncc2N)C[C@@H](O)[C@@H]1O

Response:
[8.37, 7.80]

Items follow; give pIC50 for each.
1. Nc1cnc(-c2c(F)cccc2F)nc1C(=O)Nc1cnccc1C1=C[C@@H](O)[C@H](O)[C@@H](CCl)O1
2. N[C@H]1C[C@@H](c2ccncc2NC(=O)c2ccc(F)c(-c3c(F)cccc3F)n2)O[C@H]2CCC[C@]21O
3. Nc1ncc(-c2ccccc2)nc1C(=O)Nc1cnccc1[C@H]1C[C@@H](O)[C@H](O)[C@@H](CCl)O1
4. O=C(Nc1cnccc1[C@@H]1C[C@H](O)[C@]2(O)CCCC[C@@H]2O1)c1ccnn(-c2ccccc2F)c1=O
5. N#CC[C@H]1O[C@@H](c2ccncc2NC(=O)c2nc(-c3c(F)cccc3F)c(F)cc2N)C[C@@H](O)[C@@H]1O [Example 152]
6. O=C1CC[C@H]2O[C@@H](c3ccncc3NC(=O)c3ccc(F)c(-c4c(F)cccc4F)n3)C[C@@H](O)[C@@H]2N1
7. O=C(Nc1cnccc1[C@H]1C[C@@H](O)[C@H](O)[C@@H](C2CC2)O1)c1cccc(-c2c(F)cccc2F)n1
8. CC[C@]1(O)[C@H](O)C[C@H](c2ccncc2NC(=O)c2nc(-c3nccs3)ccc2N)O[C@@H]1C

Response:
1: 8.52; 2: 6.81; 3: 8.70; 4: 5.62; 5: 8.64; 6: 8.44; 7: 8.18; 8: 7.92

* * *

study.target: PIM2 (Homo sapiens, UniProt Q9P1W9)
Sequence (Q9P1W9 whole entry): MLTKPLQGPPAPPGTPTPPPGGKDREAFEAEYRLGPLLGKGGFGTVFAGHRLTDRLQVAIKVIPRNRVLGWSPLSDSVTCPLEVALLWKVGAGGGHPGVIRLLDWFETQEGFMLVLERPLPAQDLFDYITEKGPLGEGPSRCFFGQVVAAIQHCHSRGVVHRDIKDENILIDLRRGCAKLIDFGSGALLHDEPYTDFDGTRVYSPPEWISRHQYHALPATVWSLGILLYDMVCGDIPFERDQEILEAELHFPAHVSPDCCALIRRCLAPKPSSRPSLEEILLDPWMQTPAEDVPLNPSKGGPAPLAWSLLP
assay.notes: KinaseGlo Pim2 ATP depletion assay
Assay type: biochemical
observation.type: IC50 (nM)
Numbers only, in nM.

Use these answered entries as a reference point.
>>> reading("O=C(Nc1cnccc1[C@@H]1C[C@H](O)[C@@H](O)[C@H](C2CC2)O1)c1ccc(F)c(-c2c(F)cccc2F)n1 [Example 209]")
7.9
>>> reading("C[C@@H]1O[C@H](c2ccncc2NC(=O)c2ccc(F)c(-c3c(F)cccc3F)n2)C[C@H](O)[C@H]1O [Example 120]")
12
>>> reading("[2H][C@@H]1[C@@H](O)[C@H](O)[C@@H](CC)O[C@@]1([2H])c1ccncc1NC(=O)c1ccc(F)c(-c2c(F)cccc2F)n1 [Example 54]")
3

Please give IC50, item by item, for the list that follows.
1. CC1C(c2ccncc2NC(=O)c2ccc(F)c(-c3c(F)cccc3F)n2)OC(C)[C@@H](O)C1O (stereo in doubt) [Example 64]
2. N[C@H]1C[C@@H](c2ccncc2NC(=O)c2ccc(F)c(-c3c(F)cccc3F)n2)O[C@H]2CCC[C@]21O [Example 212]
3. Nc1ncc(-c2ccccc2)nc1C(=O)Nc1cnccc1[C@@H]1C[C@H](O)[C@]2(O)CCCC[C@@H]2O1 [Example 176]
4. CC[C@H]1O[C@@H](c2ccncc2NC(=O)c2nc(-c3c(F)cccc3F)ncc2N)C[C@@H](O)[C@]1(C)O [Example 168]

Response:
1: 16; 2: 508; 3: 1820; 4: 2.3
